Target: CIB1 and αIIb interaction (CIB1-GST : F-αIIb peptide) (Homo sapiens, UniProt Q99828)
Construct: made in house; host or cells: BL-21 plus RIL cells (E. coli)
Sequence (Q99828 1-191): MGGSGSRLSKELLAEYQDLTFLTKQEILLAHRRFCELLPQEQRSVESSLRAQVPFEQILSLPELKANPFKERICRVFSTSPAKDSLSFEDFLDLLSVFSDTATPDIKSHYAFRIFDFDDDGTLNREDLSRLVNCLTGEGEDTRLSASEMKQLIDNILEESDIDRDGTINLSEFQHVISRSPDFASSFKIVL
Test: FP assay, 1536-well qHTS format (primary and confirmatory screen)
Type: binding
Details: confirmatory screen
property: Efficacy (%) (confirmatory screen)
The answer is to be given in %; state only the numeric part.

// query Tell me the measured Efficacy (%) (confirmatory screen) of CC1=C[C@@H]2[C@H]([C@@H](O)C[C@@]3(C)[C@H]2C[C@@H](C)[C@]3(O)C(=O)CO)[C@@]2(C)Cc3cnn(-c4ccccc4)c3C=C12 , please.
// result -46

// query Next molecule up: C=C1[C@@H](C)[C@H]2[C@H](Cc3ccccc3)NC(=O)[C@]23OC(=O)/C=C/C(=O)CCC[C@@H](C)C/C=C/[C@H]3[C@@H]1O
// result -94

// query Next molecule up: Cc1ccc(C)n1-c1sccc1C(=O)O
// result -97

// query Next molecule up: Oc1ccc2c(-c3c(-c4ccccn4)nn4c3CCC4)ccnc2c1
// result -42

// query Next molecule up: C=C1C(=O)[C@@]23C(CC[C@@H]1[C@H]2O)[C@@]12CO[C@]3(O)[C@@H](O)[C@@H]1C(C)(C)CC[C@@H]2O (stereo partly drawn)
// result -89

// query Next molecule up: COP(=S)(OC)SCN1C(=O)c2ccccc2C1=O
// result -50

// query Next molecule up: NC(=O)c1ccnc2c(O)cccc12.O=C(O)C(F)(F)F
// result -22

// query Next molecule up: COc1ccc(CC(=O)Nc2ccc(S(=O)(=O)Nc3cc(C)on3)cc2)cc1C.O=C(O)C(F)(F)F
// result -69

// query Next molecule up: CCN1CCN(c2cccc(Nc3nn4c(=O)c5ccccc5nc4s3)c2)CC1.Cl
// result -38

// query Next molecule up: COc1ccc(S(=O)(=O)Nc2cnccc2C(=O)Nc2nc(-c3ccccc3)cs2)cc1.O=C(O)C(F)(F)F
// result -81

// query Next molecule up: O=C(c1ccccc1)c1no[n+]([O-])c1C(=O)c1ccccc1
// result -54

// query Next molecule up: C=C(CC)C(=O)c1ccc(OCC(=O)O)c(Cl)c1Cl
// result -56

// query Next molecule up: Cn1c(NC2=NC3(CCCC3)C3=C(CCCC3=O)N2)nc2ccccc21.O=C(O)C(F)(F)F
// result -31

// query Next molecule up: CC1=C(O)C(=O)C=C2C1=CC=C1[C@@]2(C)CC[C@@]2(C)[C@@H]3C[C@](C)(C(=O)O)CC[C@]3(C)CC[C@]12C
// result -135

// query Next molecule up: Cc1cnc(-c2ccccc2C(C)C)nc1NCc1ccc(-c2ccc(F)nc2)cc1.O=C(O)C(F)(F)F
// result -124
